The measurements presented in this section are drawn from patent US8952150B2.

# target_or_system: rat PGT (Rattus norvegicus (Rat), UniProt Q00910)
# assay_overview: [3H]PGE2 uptake inhibition in MDCK cells stably transfected with rat PGT (percent inhibition and IC50)
# Type: cell-based
# condition_context: 5 μM compound; inhibition of [3H]PGE2 uptake
parameter: Inh (% of Ctl) 5 μM

- O=C(CCCCCCNc1nc(Nc2ccccc2)nc(Nc2ccc(O)cc2)n1)Nc1ccccc1 [compound 96]: 23.9 % of Ctl
- CN(C)C(=O)c1ccc(Nc2nc(NCCOCCOCCNC(=O)c3ccccc3)nc(Nc3ccc(O)cc3)n2)cc1 [compound 15]: 16.6 % of Ctl
- O=C(NCCOCCOCCNc1nc(Nc2ccc(O)cc2)nc(Nc2ccc3c(c2)C(=O)NC3=O)n1)c1ccccc1 [compound 77]: 23.2 % of Ctl
- O=C(NCCOCCOCCNc1nc(Nc2ccc(O)cc2)nc(Nc2ccc(C(=O)NCc3ccccc3Cl)cc2)n1)c1ccccc1 [compound 106]: 93.1 % of Ctl
- O=C(NCCOCCOCCNc1nc(Nc2ccc(O)cc2)nc(Nc2ccc(C(=O)NCc3ccccn3)cc2)n1)c1ccccc1 [compound 70]: 84.0 % of Ctl
- O=C(O)c1ccc(Nc2nc(NCCOCCOCCNC(=O)c3ccccc3)nc(Nc3ccccc3)n2)cc1 [compound 58]: 41.0 % of Ctl

Look up Inh (% of Ctl) 5 μM: COc1cccc(CNC(=O)c2ccc(Nc3nc(NCCOCCOCCNC(=O)c4ccccc4)nc(Nc4ccc(O)cc4)n3)cc2)c1 [compound 88]
88.2 % of Ctl

----------
# target_or_system: UniProtKB Q00910
# assay_overview: [3H]PGE2 uptake inhibition in MDCK cells stably transfected with rat PGT (percent inhibition and IC50)
# Type: cell-based
# condition_context: 0.5 μM compound; inhibition of [3H]PGE2 uptake
# Experimental: MDCK cells stably transfected with rat PGT (Endo et al., 2002) were seeded at 15-20% confluence on 24-well plates. The day on which the cells were seeded was considered day 1. PGE2 uptake experiments were conducted on day 4. All of the PGE2 uptake experiments were conducted at room temperature. […] 1.5 mL of scintillation solution was added to each well, and intracellular [^3H]PGE2 was counted by MicroBeta Counter. […] IC50 was calculated by fitting an equation of y=m1−m1*(m0/(m2+m0)).
The reader will find reported Inh (% of Ctl) 0.5 μM values listed item by item below.

Record excerpt, results attached:
- O=C(NCCOCCOCCNc1nc(Nc2ccc(O)cc2)nc(Nc2ccc(C(=O)NCc3ccc(C(F)(F)F)cc3)cc2)n1)c1ccccc1: 49.2 % of Ctl
- O=C(O)c1cccc(Nc2nc(NCCOCCOCCNC(=O)c3ccccc3)nc(Nc3ccc(C(=O)NCc4ccc(F)cc4)cc3)n2)c1: 14.3 % of Ctl
- COc1ccc(C(=O)NCCOCCNc2nc(Nc3ccc(O)cc3)nc(Nc3ccc(C(=O)NCc4ccccc4)cc3)n2)cc1: 64.9 % of Ctl

Attention now turns to another entry.
// Inh (% of Ctl) 0.5 μM lookup, key: CC(C)(C)NC(=O)c1ccc(Nc2nc(NCCOCCOCCNC(=O)c3ccccc3)nc(Nc3ccc(O)cc3)n2)cc1
11.8 % of Ctl

----------
# target_or_system: rat PGT (Rattus norvegicus (Rat))
# assay_overview: [3H]PGE2 uptake inhibition in MDCK cells stably transfected with rat PGT (percent inhibition and IC50)
# Format: cell-based
# condition_context: 5 μM compound; inhibition of [3H]PGE2 uptake
parameter: Inh (% of Ctl) 5 μM

Solved entries:
* O=C(NCCOCCO)c1ccc(Nc2nc(NCCOCCOCCNC(=O)c3ccccc3)nc(Nc3ccc(O)cc3)n2)cc1 [compound 18] | 48.9 % of Ctl
* O=C(NCCOCCOCCNc1nc(Nc2ccc(O)cc2)nc(Nc2ccc(C(=O)N[C@H](C(=O)O)c3ccccc3)cc2)n1)c1ccccc1 [compound 80] | 57.2 % of Ctl
* COc1ccc(Nc2nc(NCCOCCOCCNC(=O)c3ccccc3)nc(Nc3ccc(O)cc3)n2)cc1 [compound 23] | 38.4 % of Ctl
* O=C(NCCOCCOCCNc1nc(Nc2ccc(O)cc2)nc(Nc2ccc(C(=O)Nc3ccccc3)cc2)n1)c1ccccc1 [compound 103] | 83.7 % of Ctl
* CCCCCCNC(=O)c1ccc(Nc2nc(NCCOCCOCCNC(=O)c3ccccc3)nc(Nc3ccc4[nH]ncc4c3)n2)cc1 [compound 65] | 84.0 % of Ctl

Can you share its Inh (% of Ctl) 5 μM? I mean this molecule: O=C(NCCOCCOCCNc1nc(Nc2ccc(O)cc2)nc(Nc2ccc(C(=O)NCc3ccccc3F)cc2)n1)c1ccccc1 [compound 110]
93.6 % of Ctl

Note, next up: O=C(NCCOCCOCCNc1nc(Nc2ccc(O)cc2)nc(Nc2ccc(C(=O)NCc3ccc(-c4ccccc4)cc3)cc2)n1)c1ccccc1 [compound 93]
51.1 % of Ctl
